Give TGI for every item shown.
test system: SN12C renal; assay: NCI tumour cell line growth inhibition, 48 h
Numbers only, in µM.

Reference set (3 entries):
# entry_smiles, measure_unit, observed_measurement
records = [
    ("NC(N)=N/N=C/c1c(-c2ccsc2)nc2sccn12", "µM", 29.7),
    ("C[C@H]1[C@H]2[C@H]3CC[C@@H]4[C@@]5(C)CC[C@H](O)C(C)(C)[C@@H]5CC[C@@]4(C)[C@]3(C)C[C@H](O)[C@@]2(C)C[C@H]2O[C@]21C", "µM", 37.8),
    ("CN(C)CCNC(=O)c1cccc2ccc(-c3ccc(O)cc3)nc12", "µM", 13.2),
]

Turning now to a further record.
In: Provide one value: measured TGI of "Cc1ccc(S(=O)(=O)Nc2ccccc2C=O)cc1"
Out: 45
